- Test system: HCC-2998 colon
- Experiment Summary: NCI tumour cell line growth inhibition, 48 h
Measurement Name: TGI

Example molecules with recorded TGI:
Molecule | Reported Value
CC1(O)CC(C(F)(F)F)(C(F)(F)F)OC1=O (centres undefined) | > 10 µM
O=C1CCC[C@@H]2NC[C@@H](c3ccc4c(c3)OCO4)[C@H]12 | > 25 µM
NCC1CCN(c2nc3ccccc3c3c2CCCC3)CC1 | 3.46 µM

Now for the molecule whose TGI we want.
Lookup: Which TGI is reported for this molecule? Cc1ccc(-c2c(C#N)c(-c3ccccc3)n(NS(=O)(=O)c3ccccc3)c(=O)c2C#N)cc1
Found: > 100 µM
